Molecular target: Fuc(a1-2)[Gal(a1-3)]Gal(b1-3)GlcNAc
Test: glycan array binding signal (z-score within array); higher = stronger binding
Conditions: glycan notation: IUPAC condensed, linker removed
The sample as a whole holds a higher share of the strongest signals than the screen did.
# cutoff -0.1 applies to glycan array binding signal (z-score); >= gives criterion met, < gives criterion not met

INSERT INTO assay_data (binder, label_class) VALUES
  ('M6PR (Bos taurus), P11456 (protein) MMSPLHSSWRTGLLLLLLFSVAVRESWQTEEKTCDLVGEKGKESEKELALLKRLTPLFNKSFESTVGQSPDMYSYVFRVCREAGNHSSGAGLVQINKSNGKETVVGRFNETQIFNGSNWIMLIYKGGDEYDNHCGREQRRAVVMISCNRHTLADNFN', 'criterion met'),
  ('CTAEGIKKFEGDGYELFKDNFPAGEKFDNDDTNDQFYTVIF [MUB40 (Lactobacillus reuteri)]', 'criterion met'),
  ('MAA (Maackia amurensis), P0DKL3 (protein) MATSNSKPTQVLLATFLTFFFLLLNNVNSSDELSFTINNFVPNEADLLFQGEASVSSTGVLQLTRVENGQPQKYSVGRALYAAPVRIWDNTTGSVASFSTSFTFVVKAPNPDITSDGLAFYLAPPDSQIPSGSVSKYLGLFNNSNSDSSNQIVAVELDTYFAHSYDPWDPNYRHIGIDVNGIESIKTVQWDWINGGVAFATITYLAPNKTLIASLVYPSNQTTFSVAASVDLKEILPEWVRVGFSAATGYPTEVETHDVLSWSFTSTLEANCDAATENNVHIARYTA', 'criterion not met'),
  ('Gal 8 (Mus musculus), Q9JL15 (protein) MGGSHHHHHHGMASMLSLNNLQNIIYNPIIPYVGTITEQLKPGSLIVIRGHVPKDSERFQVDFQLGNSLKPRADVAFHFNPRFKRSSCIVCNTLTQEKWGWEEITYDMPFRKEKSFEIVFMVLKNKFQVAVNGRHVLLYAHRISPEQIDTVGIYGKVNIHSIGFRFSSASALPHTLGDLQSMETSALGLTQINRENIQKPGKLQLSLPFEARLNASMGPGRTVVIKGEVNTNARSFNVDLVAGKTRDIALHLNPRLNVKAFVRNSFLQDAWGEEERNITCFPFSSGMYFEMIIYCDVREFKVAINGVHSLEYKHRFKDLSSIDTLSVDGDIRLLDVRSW', 'criterion met'),
  ('EEA (Euonymus europaeus) (protein) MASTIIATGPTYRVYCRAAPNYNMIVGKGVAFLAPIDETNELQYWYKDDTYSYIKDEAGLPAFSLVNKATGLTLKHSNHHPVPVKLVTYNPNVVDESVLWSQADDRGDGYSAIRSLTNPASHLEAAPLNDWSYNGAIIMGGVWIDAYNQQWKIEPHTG', 'criterion met'),
  ('EULS2 M3 (Oryza sativa) (protein) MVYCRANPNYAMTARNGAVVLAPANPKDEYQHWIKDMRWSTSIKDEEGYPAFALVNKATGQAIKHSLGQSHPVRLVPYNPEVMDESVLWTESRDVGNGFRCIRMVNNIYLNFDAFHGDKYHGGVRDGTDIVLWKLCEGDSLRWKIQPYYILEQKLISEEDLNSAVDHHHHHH', 'criterion met'),
  ('AT5G01260(PC)(40) (Arabidopsis thaliana), Q9LFB0 (protein) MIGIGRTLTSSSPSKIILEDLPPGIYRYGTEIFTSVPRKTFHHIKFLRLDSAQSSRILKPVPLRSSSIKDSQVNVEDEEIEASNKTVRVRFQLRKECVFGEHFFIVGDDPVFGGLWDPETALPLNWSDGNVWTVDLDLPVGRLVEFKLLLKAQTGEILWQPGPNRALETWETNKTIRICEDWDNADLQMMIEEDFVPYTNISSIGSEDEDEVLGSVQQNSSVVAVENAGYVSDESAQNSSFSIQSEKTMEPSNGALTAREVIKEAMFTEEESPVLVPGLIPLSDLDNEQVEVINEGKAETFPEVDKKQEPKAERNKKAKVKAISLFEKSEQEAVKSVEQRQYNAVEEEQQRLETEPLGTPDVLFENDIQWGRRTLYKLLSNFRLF', 'criterion met'),
  ('Sebin1 (Coprinopsis cinerea), A8PEE3 (protein) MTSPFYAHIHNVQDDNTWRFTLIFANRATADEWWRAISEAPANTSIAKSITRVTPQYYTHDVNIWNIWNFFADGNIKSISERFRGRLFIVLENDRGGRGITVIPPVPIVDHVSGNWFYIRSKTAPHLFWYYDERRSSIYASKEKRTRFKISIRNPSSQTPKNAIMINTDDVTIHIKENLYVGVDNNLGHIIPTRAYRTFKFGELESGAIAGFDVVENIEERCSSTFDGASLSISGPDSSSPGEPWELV', 'criterion not met'),
  ('Microvirin-2 (Microcystis aeruginosa) (protein) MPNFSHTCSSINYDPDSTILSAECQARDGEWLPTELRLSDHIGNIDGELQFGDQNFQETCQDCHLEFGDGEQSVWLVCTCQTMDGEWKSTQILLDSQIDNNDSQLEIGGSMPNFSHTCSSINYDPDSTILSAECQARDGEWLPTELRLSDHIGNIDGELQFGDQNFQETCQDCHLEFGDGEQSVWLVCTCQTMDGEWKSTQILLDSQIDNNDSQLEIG', 'criterion not met');
